system: SF-268 CNS; test: NCI tumour cell line growth inhibition, 48 h
attribute-measured: TGI

IN: Please report TGI for the following compound: CC1CN1c1c(C(=O)/C=C/c2ccc(F)cc2)c(-c2ccccc2)nn(C)c1=O (stereo unspecified)
OUT: 30.4 µM

IN: Please report TGI for the following compound: C=C(CC)C(=O)c1ccc(OCC(=O)O)c(Cl)c1Cl
OUT: 33.1 µM

IN: Please report TGI for the following compound: COC(=O)C1=C(N)C2=C(N)Oc3ccccc3C2CC1=C(C#N)C#N (stereo unspecified)
OUT: 89.4 µM

IN: Please report TGI for the following compound: CC(=O)n1nc(-c2[nH]c(C)c(-c3nn(C(C)=O)c(=S)o3)c2C)oc1=S
OUT: > 100 µM

IN: Please report TGI for the following compound: CCOC(=O)C1(C)C2=CC=C(O2)C(C)(C)C2=CC=C(O2)C(C)(C)C2=CC=C(O2)C(C)(C)C2=CC=C1O2
OUT: > 100 µM

IN: Please report TGI for the following compound: CCN1CCCCCCCCCC(=N/O)/C(=N\O)C1
OUT: > 100 µM

IN: Please report TGI for the following compound: CC(=O)OC1CCn2c1nc1c2C(=O)C=C(N2CC2)C1=O (stereo unspecified)
OUT: 0.784 µM

IN: Please report TGI for the following compound: Cc1ncnc2c1ccn2[C@@H]1C[C@H](Oc2cc(C(F)F)c(F)c3c2CNCC3)[C@@H](O)[C@H]1O
OUT: > 100 µM

IN: Please report TGI for the following compound: Cc1ccc(S(=O)(=O)NC(=O)NC(CCCCN)C(=O)O)cc1 (stereo unspecified)
OUT: > 100 µM

IN: Please report TGI for the following compound: COc1ccc(C(=O)C(c2ccc(OC)cc2)C2(O)C(=O)Nc3c(Cl)cc(Cl)cc32)cc1 (stereo unspecified)
OUT: > 100 µM

IN: Please report TGI for the following compound: CC(=O)[CH-]C(=O)c1ccccc1.CC(=O)[CH-]C(=O)c1ccccc1.CC(=O)[CH-]C(=O)c1ccccc1.[Cl-].[Hf+4]
OUT: > 100 µM

IN: Please report TGI for the following compound: CC12CCC(=O)N1[C@@H](c1ccccc1)[C@@H](c1ccccc1)O2 (stereo partly specified)
OUT: > 100 µM

IN: Please report TGI for the following compound: CC(C)=NC(C(=O)O)C(C)(C)S (stereo unspecified)
OUT: > 100 µM

IN: Please report TGI for the following compound: OC(Cc1cnnc2ccccc12)C(Cl)(Cl)Cl (stereo unspecified)
OUT: > 10 µM

IN: Please report TGI for the following compound: COC(=O)C1C(=O)C(C(=O)OC)C2CCC1N2C (stereo unspecified)
OUT: > 100 µM

IN: Please report TGI for the following compound: O=C(NNC1=NS(=O)(=O)c2ccccc2N1c1ccccc1)c1cnccn1
OUT: > 100 µM

IN: Please report TGI for the following compound: COc1ccc(C[C@@H]2OC3(C=CC(=O)CC3Sc3ccccc3)O[C@H]2Cc2ccc(OC)cc2)cc1 (stereo partly specified)
OUT: 1.75 µM

IN: Please report TGI for the following compound: CCOC(=O)CCCc1cc(=O)c2c(C)c3[nH]c4ccc(Cl)cc4c3c(C)c2[nH]1
OUT: 54 µM

IN: Please report TGI for the following compound: O=C(N[C@H](CO)[C@H](O)c1ccc([N+](=O)[O-])cc1)C(Cl)Cl
OUT: > 100 µM

IN: Please report TGI for the following compound: COc1ccc(N=Nc2c(-c3ccccc3)nn(C(=O)CC(=O)Nc3ccc(OC)cc3)c2-c2ccccc2)cc1
OUT: > 100 µM

IN: Please report TGI for the following compound: NC(N)=N/N=C/c1c(-c2ccc([N+](=O)[O-])cc2)nc2sc(Cl)cn12
OUT: 3.31 µM

* * *

Record form. Attribute: TGI. Fill in for each entry.
tested on: EKVX NSCLC; experiment: NCI tumour cell line growth inhibition, 48 h
Return type: number; implicit unit µM.

IN: Please report TGI for the following compound: CC(C)(Oc1cccc(N2CCC[C@@H](C(=O)N(Cc3ccc(-c4cn[nH]c4)cc3)C3CC3)C2)c1)C(=O)N1CCNCC1
OUT: 27.9

IN: Please report TGI for the following compound: Cc1cc(C)c([O-])c(-[n+]2c(-c3ccccc3)cc(-c3ccccc3)cc2-c2ccccc2)c1
OUT: 21.4

* * *

test system: HOP-62 NSCLC; assay: NCI tumour cell line growth inhibition, 48 h
attribute-measured: GI50

IN: Please report GI50 for the following compound: O=C(NNC1=NS(=O)(=O)c2ccccc2N1c1ccccc1)c1cnccn1
OUT: > 100 µM

IN: Please report GI50 for the following compound: Cn1ccc(S(=O)(=O)N2CCC[C@H](Nc3nccc(-c4c(-c5cccc(O)c5)nc5occn45)n3)C2)n1
OUT: 31 µM

IN: Please report GI50 for the following compound: C=C1CC[C@@](C)(c2cc(Br)c(C)cc2OC(C)=O)[C@H]1C
OUT: 17.5 µM

IN: Please report GI50 for the following compound: CCN1C[C@@H](C)n2c(c(O)c3c(=O)n(Cc4ccc(F)c(Cl)c4)nc(C(=O)NC)c32)C1=O
OUT: 3.16 µM

* * *

Record form. Attribute: GI50. Fill in for each entry.
tested on: COLO 205 colon; assay: NCI tumour cell line growth inhibition, 48 h

IN: Please report GI50 for the following compound: COc1cc(C2C=C(C)N=C3SC=C(C)N32)cc(OC)c1OC (configuration not stated)
OUT: 1320 nM

IN: Please report GI50 for the following compound: CN(C)C/C=C/C(=O)Nc1ccc(C(=O)Nc2cccc(Nc3ncc(Cl)c(-c4c[nH]c5ccccc45)n3)c2)cc1
OUT: 12.1 nM

IN: Please report GI50 for the following compound: COc1cc(C(=O)/C=C/c2cccnc2Nc2ccc(Cl)cc2)cc(OC)c1OC
OUT: 1830 nM

IN: Please report GI50 for the following compound: Cc1ccc(/C=C(/C#N)n2nnc3cccc(F)c32)cc1
OUT: 387 nM

IN: Please report GI50 for the following compound: Cc1cc2c(C(C)C)c(O)c(O)c(/C=N/O)c2c(O)c1-c1c(C)cc2c(C(C)C)c(O)c(O)c(/C=N/O)c2c1O
OUT: 2880 nM

IN: Please report GI50 for the following compound: CC(C)N(CCNc1nc(C(Cl)(Cl)Cl)nc2cc(Cl)ccc12)C(C)C
OUT: 1800 nM

IN: Please report GI50 for the following compound: N#Cc1ncc(-c2ccc(C(F)(F)F)cc2)c(NC2CCCCCC2)n1
OUT: 13200 nM

IN: Please report GI50 for the following compound: Cc1cc(NS(=O)(=O)c2ccc(-c3cnc(C4CC4)o3)cc2)ccc1Cl
OUT: 305 nM

IN: Please report GI50 for the following compound: CCN(CC)CCOc1ccc2c(-c3ccccc3)c(-c3ccc(OC)cc3)c(=O)oc2c1
OUT: 1850 nM

IN: Please report GI50 for the following compound: N#Cc1c(-c2ccccc2)nc(SCC(O)CN2CCOCC2)nc1N1CCOCC1 (configuration not stated)
OUT: 29600 nM

IN: Please report GI50 for the following compound: O=C1NC(=NCCc2ccccc2F)S/C1=C\c1ccc2ncccc2c1
OUT: 6540 nM

IN: Please report GI50 for the following compound: N=C1C(c2nc3ccccc3c(=O)[nH]2)=C(O)CN1c1cccc(Cl)c1
OUT: 5070 nM

IN: Please report GI50 for the following compound: O=C(NNC1=NS(=O)(=O)c2ccccc2N1c1ccccc1)c1cnccn1
OUT: > 100000 nM

IN: Please report GI50 for the following compound: CCN1C[C@@H](C)n2c(c(O)c3c(=O)n(Cc4ccc(F)c(Cl)c4)nc(C(=O)NC)c32)C1=O
OUT: 18300 nM

IN: Please report GI50 for the following compound: CC[C@@]1(O)C(=O)OCc2c1cc1n(c2=O)Cc2cc3cc(O)ccc3nc2-1
OUT: 573 nM

IN: Please report GI50 for the following compound: c1ccc(C2=Nc3ccccc3N3CNN=C23)cc1
OUT: > 100000 nM

IN: Please report GI50 for the following compound: [CH3][Ge]([CH3])([CH2]CC#N)[S]c1ccccc1
OUT: 17500 nM

* * *

test system: NCI-H460 lung
Can you answer with just one of these options? active, inactive

IN: Give the logged outcome of this assay for the following compound: CCCCNC(=O)CC1=C(C)/C(=C/c2[nH]c(-c3ccc[nH]3)cc2OC)N=C1C
OUT: inactive

IN: Give the logged outcome of this assay for the following compound: CCN1C[C@@H](C)n2c(c(O)c3c(=O)n(Cc4ccc(F)c(Cl)c4)nc(C(=O)NC)c32)C1=O
OUT: inactive

IN: Give the logged outcome of this assay for the following compound: COc1ccc(/C=C/C(=O)C(=O)/C=C/c2ccc(OC)c(OC)c2)cc1OC
OUT: inactive

IN: Give the logged outcome of this assay for the following compound: N#Cc1ncc(-c2ccc(C(F)(F)F)cc2)c(NC2CCCCCC2)n1
OUT: inactive

IN: Give the logged outcome of this assay for the following compound: COc1cc2c3c(n(CCCNCCCCN)c(=O)c2cc1OC)-c1cc2c(cc1C3=O)OCO2
OUT: active

IN: Give the logged outcome of this assay for the following compound: N=C1C(c2nc3ccccc3c(=O)[nH]2)=C(O)CN1c1cccc(Cl)c1
OUT: inactive

IN: Give the logged outcome of this assay for the following compound: CCNCCS(=O)(=O)NC[C@@]1(c2ccccc2)SC(NC(=O)C(C)(C)C)=NN1C(=O)C(C)(C)C
OUT: active

IN: Give the logged outcome of this assay for the following compound: Nc1ncc(-c2ccc3ncnc(N4CCc5cc(F)c(Cl)cc54)c3c2)cc1C=O
OUT: inactive

IN: Give the logged outcome of this assay for the following compound: O=C1NC(=NCCc2ccccc2F)S/C1=C\c1ccc2ncccc2c1
OUT: inactive
